# Tested on: HFF
# ASSAY OVERVIEW: uninfected host cell viability relative to vehicle control; higher = less host cell toxicity
# ASSAY SETUP: 5 µM; 72 h; oxygen 21 %
Where a name gives a salt, the structure may show the parent alone. Among all 1,000 compounds or so, about 15 (2%) showed an effect of 50% or more. What follows is part of a selection rich in strong results, with near analogues and random picks from the rest.
hey, just use Fulfilled if measured uninfected host cell viability is less than 90%, otherwise Not fulfilled

Query block: Does this compound meet the criterion uninfected host cell viability < 90%? `Nc1ncnc2n[nH]c(Nc3ccc(F)cc3)c12`
Result block: Fulfilled

Query block: Does this compound meet the criterion uninfected host cell viability < 90%? `CCn1c(=O)[nH]c2ccccc21`
Result block: Not fulfilled

Next:
Query block: Does this compound meet the criterion uninfected host cell viability < 90%? `O=C(Nc1cc(C(F)(F)F)cc(C(F)(F)F)c1)c1cc(Cl)ccc1O`
Result block: Fulfilled

Query block: Does this compound meet the criterion uninfected host cell viability < 90%? c1ccc2oc(C3=NCCN3)cc2c1 [2-BFI hydrochloride]
Result block: Fulfilled

Query block: Does this compound meet the criterion uninfected host cell viability < 90%? `O=C(/C=C/c1ccc(O)c(O)c1)O[C@H](Cc1ccc(O)c(O)c1)C(=O)O`
Result block: Fulfilled
